- experiment_summary: Selectivity index, ratio of CC50 for human HepG2(2.2.15) cells to IC50 for Hepatitis B virus infected in human HepG2(2.2.15) cells assessed as inhibition of viral e antigen secretion
- Assay type: functional
For each of the compounds below, state its Ratio CC50/IC50.

smiles_data	Ratio CC50/IC50
CC(=O)[C@]1(O)CC[C@@]2(O)[C@]1(C)[C@H](OC(=O)/C=C(\C)C(C)C)C[C@@H]1[C@@]3(C)CC[C@H](OC(=O)/C=C/c4ccc(C(F)(F)F)cc4)CC3=CC[C@]12O	>1
CC(=O)[C@]1(O)CC[C@@]2(O)[C@]1(C)[C@H](OC(=O)/C=C(\C)C(C)C)C[C@@H]1[C@@]3(C)CC[C@H](OC(=O)/C=C/c4ccc5c(c4)OCO5)CC3=CC[C@]12O	>37.9
CC(=O)[C@]1(O)CC[C@@]2(O)[C@]1(C)[C@H](OC(=O)/C=C(\C)C(C)C)C[C@@H]1[C@@]3(C)CC[C@H](OC(=O)/C=C/c4ccc(F)c(F)c4)CC3=CC[C@]12O	>18.7
CC(=O)[C@]1(O)CC[C@@]2(O)[C@]1(C)[C@H](OC(=O)/C=C(\C)C(C)C)C[C@@H]1[C@@]3(C)CC[C@H](OC(=O)/C=C/c4ccc(F)c(C(F)(F)F)c4)CC3=CC[C@]12O	>1.7

Now for a further compound.
Input: Name the recorded Ratio CC50/IC50 of the compound listed here: "CC(=O)[C@]1(O)CC[C@@]2(O)[C@]1(C)[C@H](OC(=O)/C=C(\C)C(C)C)C[C@@H]1[C@@]3(C)CC[C@H](OC(=O)/C=C/c4ccc(Cl)c(Cl)c4)CC3=CC[C@]12O"
Output: >1.5

----------
For each of the compounds below, state its Ratio CC50/IC50.
- experiment_summary: Selectivity index, ratio of CC50 for human HepG2(2.2.15) cells to IC50 for Hepatitis B virus infected in human HepG2(2.2.15) cells assessed as inhibition of viral DNA replication
- Assay type: functional
Numbers only.

smiles_data	measured_parameter	observed_result
CC(=O)[C@]1(O)CC[C@@]2(O)[C@]1(C)[C@H](OC(=O)/C=C(\C)C(C)C)C[C@@H]1[C@@]3(C)CC[C@H](OC(=O)/C=C/c4ccc(C=O)cc4)CC3=CC[C@]12O	Ratio CC50/IC50	6.3
CC(=O)[C@]1(O)CC[C@@]2(O)[C@]1(C)[C@H](OC(=O)/C=C(\C)C(C)C)C[C@@H]1[C@@]3(C)CC[C@H](OC(=O)/C=C/c4ccc(F)c(F)c4F)CC3=CC[C@]12O	Ratio CC50/IC50	140.2

Now for a further compound.
Input: Name the recorded Ratio CC50/IC50 of the compound listed here: "CC(=O)[C@]1(O)CC[C@@]2(O)[C@]1(C)[C@H](OC(=O)/C=C(\C)C(C)C)C[C@@H]1[C@@]3(C)CC[C@H](OC(=O)/C=C/c4ccc(Cl)c([N+](=O)[O-])c4)CC3=CC[C@]12O"
Output: 71.3

----------
- experiment_summary: Cytotoxicity against human HepG2(2.2.15) cells by modified-MTT assay
- Format: cell-based
For each of the compounds below, state its CC50.
One number for each entry, in µM.

smiles_data	display_unit	CC50
CC(=O)[C@]1(O)CC[C@@]2(O)[C@]1(C)[C@H](OC(=O)/C=C(\C)C(C)C)C[C@@H]1[C@@]3(C)CC[C@H](OC(=O)/C=C/c4ccccc4C)CC3=CC[C@]12O	µM	1370

Now for a further compound.
Input: Name the recorded CC50 of the compound listed here: "CC(=O)[C@]1(O)CC[C@@]2(O)[C@]1(C)[C@H](OC(=O)/C=C(\C)C(C)C)C[C@@H]1[C@@]3(C)CC[C@H](OC(=O)/C=C/c4cccc(Br)c4)CC3=CC[C@]12O"
Output: 429
